# subject.of.test: T1, 4H780-bH
# T1 chain: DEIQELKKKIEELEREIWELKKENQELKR
# test.summary: two-hybrid library CCNG1;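 also: natural log of median RNA to DNA barcode read ratio; higher means stronger binding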
Rule: interaction score under -0.7 gives no, otherwise yes.

Completed entries (count: 5):
| binder | label |
| --- | --- |
| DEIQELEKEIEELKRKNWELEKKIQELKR [4H118-bH] | yes |
| DEIQELKKENEELERKIWELKKENQELER [4H683-bH] | yes |
| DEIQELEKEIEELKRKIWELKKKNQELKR [4H112-bH] | yes |
| DKNQELKKKNEELKRKIWELKKEIQELER [4H4073-bH] | yes |
| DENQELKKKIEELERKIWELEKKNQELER [4H1831-bH] | yes |

Query string: Hello, I need to know if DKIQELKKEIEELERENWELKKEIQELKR [4H2586-bH] has measured interaction score not below -0.7. Thanks!
Result string: no

Query string: Hello, I need to know if DEIQELEKKNEELKREIWELKKEIQELER [4H457-bH] has measured interaction score not below -0.7. Thanks!
Result string: no

Query string: Hello, I need to know if DEIQELKKEIEELERKNWELKKKNQELER [4H575-bH] has measured interaction score not below -0.7. Thanks!
Result string: no

Query string: Hello, I need to know if DEIQELEKKIEELKRENWELKKEIQELKR [4H346-bH] has measured interaction score not below -0.7. Thanks!
Result string: yes

Query string: Hello, I need to know if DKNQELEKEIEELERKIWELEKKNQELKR [4H3112-bH] has measured interaction score not below -0.7. Thanks!
Result string: yes
